Examples of compounds with documented Ki follow.
Biological target: CB1 receptor (Rattus norvegicus)
Construct: whole brain was homogenized and centrifuged; from tissue; host or cells: whole brain of male Sprague-Dawley rats, P2 membrane fraction
Assay: CB1 binding procedure, displacement of [3H]CP 55,940 from rat whole-brain P2 membranes
Conditions: mean ± SEM; [3H]CP 55,940, rat brain membranes; read-out: Ki(nM) CB1
Respond with the bare value in nM.

Request: Give the measured Ki of CCCCCCC(C)(C)c1cc(O)c(C2CCCC(C)(C)C2)c(O)c1 (centres unmarked) .
Result: 2

Proceeding to the next compound to report its Ki.
Request: Give the measured Ki of CCCCCCC(C)(C)c1cc(O)c(C2CCCCCC2)c(O)c1 .
Result: 18

====

Target: CB2 receptor (Homo sapiens, UniProt P34972)
Construct: expressed in transfected cells
Sequence (P34972 whole entry): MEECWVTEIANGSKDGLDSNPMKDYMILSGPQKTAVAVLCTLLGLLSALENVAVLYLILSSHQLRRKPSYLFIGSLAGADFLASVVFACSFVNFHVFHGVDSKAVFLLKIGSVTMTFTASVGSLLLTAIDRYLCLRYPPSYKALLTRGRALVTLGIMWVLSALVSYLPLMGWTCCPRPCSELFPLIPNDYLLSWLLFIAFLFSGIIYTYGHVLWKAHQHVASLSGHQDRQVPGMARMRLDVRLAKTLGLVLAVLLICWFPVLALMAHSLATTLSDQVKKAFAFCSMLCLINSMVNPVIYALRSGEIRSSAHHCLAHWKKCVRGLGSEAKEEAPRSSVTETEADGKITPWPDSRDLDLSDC
Test: CB2 binding procedure, displacement of [3H]CP-55,940 from membranes of transfected CHO cells
Details: ratio of CB1 Ki to CB2 Ki
Examples of compounds with documented CB1/CB2 follow.
Answer field: number only, no words.

Request: Give the measured CB1/CB2 of CCCCCCC(C)(C)c1cc(OCC)c(C2(O)CCCC(C)C2)c(OCC)c1 (stereo not drawn) .
Result: 10

Request: Record: CCCCCCC(C)(C)c1cc(O)c(C2CCCC(C)C2)c(O)c1 (single isomer, unassigned) [O-1798B]
Result: 8

Request: Record: CCCCCCC(C)(C)c1cc(OC)c(C2(O)CCCC(C)C2)c(OC)c1 (single isomer, unassigned; isomer 2) [O-1967B]
Result: 15

Request: Record: CCCC(C)(C)c1cc(O)c(C2CCCC(C)C2)c(O)c1 (stereo not drawn)
Result: 7

Request: Record: CCCCCCC(C)(C)c1cc(OC)c(C2=CCC(=O)CC2)c(OC)c1
Result: 5

Next:
Request: Give the measured CB1/CB2 of CCCCCCC(C)(C)c1cc(OC)c(C2(O)CC(C)CC(O)C2)c(OC)c1 (stereo not drawn) .
Result: 20

====

Target: CB1 receptor (Rattus norvegicus, UniProt P20272)
Construct: whole brain was homogenized and centrifuged; from tissue; host or cells: whole brain of male Sprague-Dawley rats, P2 membrane fraction
Sequence (P20272 whole entry): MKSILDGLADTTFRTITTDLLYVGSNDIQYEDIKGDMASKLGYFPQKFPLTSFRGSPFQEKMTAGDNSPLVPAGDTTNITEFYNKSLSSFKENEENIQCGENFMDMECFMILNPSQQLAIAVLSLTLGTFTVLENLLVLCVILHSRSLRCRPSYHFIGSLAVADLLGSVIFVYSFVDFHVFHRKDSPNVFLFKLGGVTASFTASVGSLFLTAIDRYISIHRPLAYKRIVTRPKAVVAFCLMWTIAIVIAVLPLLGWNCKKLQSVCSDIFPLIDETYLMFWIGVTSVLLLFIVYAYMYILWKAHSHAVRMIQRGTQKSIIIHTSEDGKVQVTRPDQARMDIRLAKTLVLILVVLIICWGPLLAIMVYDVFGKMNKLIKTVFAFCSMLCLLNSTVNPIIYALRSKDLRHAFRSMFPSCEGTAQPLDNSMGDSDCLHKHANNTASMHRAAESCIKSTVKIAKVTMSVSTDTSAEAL
Experiment: CB1 binding procedure, displacement of [3H]CP 55,940 from rat whole-brain P2 membranes
Settings: Table 6; read-out: CB1 KI
pKi: −log10 of the molar value.
Examples of molecules with documented pKi follow.

Reference set (2 entries):
Request: Give the measured pKi of COc1cc(C)cc(OC)c1C1CCCCC1 .
Result: < 5.00

Request: Record: C=C(C)[C@@H]1CCC(C)=CC1c1c(O)cccc1O (single isomer, unassigned; (-))
Result: < 5.00

Proceeding to the next molecule to report its pKi.
Request: Give the measured pKi of C=C(C)[C@@H]1CCC(C)=CC1c1c(C)cc(O)cc1O (single isomer, unassigned; (-)) .
Result: < 5.00

====

Target: CB2 receptor (Homo sapiens, UniProt P34972)
Construct: expressed in transfected cells
Assay: CB2 binding procedure, displacement of [3H]CP-55,940 from membranes of transfected CHO cells
Details: Table 6; read-out: CB2 KI
ASSAY READOUT: Ki

Request: Give the measured Ki of COc1cc(C)cc(OC)c1C1(O)CCCCC1 [O-2298] .
Result: > 10 µM

Request: Record: COc1cc(C)cc(OC)c1C1CCCCC1 [O-2299]
Result: > 10 µM

Request: Record: C=C(C)[C@@H]1CCC(C)=CC1c1c(C)cc(O)cc1O (single isomer, unassigned; (-)) [O-1602]
Result: > 10 µM
